Origin of values: patent US8426429B2

system_tested: β-secretase (BACE) (Homo sapiens, UniProt P56817)
Construct: purchased Panvera
Sequence (P56817 46-501): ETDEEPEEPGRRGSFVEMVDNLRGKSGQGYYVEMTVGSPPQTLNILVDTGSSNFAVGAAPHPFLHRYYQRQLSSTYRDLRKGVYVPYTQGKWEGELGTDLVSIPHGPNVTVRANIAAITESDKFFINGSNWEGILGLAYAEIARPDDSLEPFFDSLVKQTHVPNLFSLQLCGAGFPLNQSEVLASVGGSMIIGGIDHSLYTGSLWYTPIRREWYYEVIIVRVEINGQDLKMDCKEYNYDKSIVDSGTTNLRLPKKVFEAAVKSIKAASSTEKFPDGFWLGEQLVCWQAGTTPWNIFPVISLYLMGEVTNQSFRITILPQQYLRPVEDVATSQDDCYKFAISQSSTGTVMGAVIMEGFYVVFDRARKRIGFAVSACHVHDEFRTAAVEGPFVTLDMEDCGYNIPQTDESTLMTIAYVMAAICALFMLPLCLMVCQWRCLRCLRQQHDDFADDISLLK
test_protocol: BACE FS1 % Inhibition Assay
Assay type: biochemical
condition_notes: 3 μM test compound
property_name: % Inhibition (FS) (%)
Kindly provide the numeric value in % only, without the unit symbol.

# annotated cases, reported % Inhibition (FS) shown
* CC(=O)c1cccc(-c2ccc3c(c2)CN(CCNC(=O)Cc2ccccc2)C(N)=N3)c1 | 36
* CC(C)CCC(=O)NC[C@@H](C(C)C)N1Cc2cc(Oc3ccccc3)ccc2N=C1N | 129

Lookup: What % Inhibition (FS) value was documented for this compound, CCCC(CCC)C(=O)N1CCC(N2Cc3cc(Oc4ccccc4)ccc3N=C2N)CC1 ?
Found: 58
